ASSAY NOTES: in vivo
REPORTED CONDITIONS: nude, mouse, 10.6 mg/kg
REPORTED PROPERTY: AUC at 5 days (ng·h/mL)
Express your answer in ng·h/mL, writing the number without its unit.

Request: Give the measured AUC at 5 days for Nc1ccn([C@@H]2CO[C@H](CO)O2)c(=O)n1 [troxacitabine, (−)-β-L-Dioxolane-Cytidine]
Response: 18800
